Numbers sourced from ChEMBL document CHEMBL5724801.

system: HEK-293T; test: Multiplex assay against HEK293T; type: toxicity, cell-based; conditions: human, 48 h, 10 µM, compound concentration 10 uM
VALUE_TYPE: Population Normal (%)
The reply should contain only the number, in %.

COMPOUND: CC(F)(F)CN1CCOc2c(nn(-c3ccccc3Cl)c2-c2ccc(Cl)cc2)C1=O
ASSAYED_TARGET: HEK-293T
READOUT_UNIT: %
QUANTITATIVE_RESULT: 93

COMPOUND: c1ccc2nc(N3CCNCC3)ccc2c1
ASSAYED_TARGET: HEK-293T
READOUT_UNIT: %
QUANTITATIVE_RESULT: 100

COMPOUND: O=S(=O)(c1ccccc1)c1cnc2c(N3CCNCC3)cccc2c1 [INTEPIRDINE]
ASSAYED_TARGET: HEK-293T
READOUT_UNIT: %
QUANTITATIVE_RESULT: 95

COMPOUND: COc1cc2ncnc(Nc3ccc(Oc4ccccc4)cc3C)c2cc1OC.Cl
ASSAYED_TARGET: HEK-293T
READOUT_UNIT: %
QUANTITATIVE_RESULT: 100

COMPOUND: S=c1[nH]nc(-c2cccs2)n1-c1ccccc1
ASSAYED_TARGET: HEK-293T
READOUT_UNIT: %
QUANTITATIVE_RESULT: 100

What Population Normal (%) value was documented for this compound, O=C1N=C(NCc2cccs2)S/C1=C\c1ccc2ncccc2c1 ?
100
